assay_name: activity coefficient (dimensionless); of the first substance listed, at infinite dilution; xn = mol fraction of the nth substance listed
particulars: 333.15 K; Liquid; Chromatography; x1 = 0
attribute_measured: activity coefficient
Form rule: numeric answer, no unit written next to it.

Sure, the documented activity coefficient for CCOCC [diethyl ether] + CCCOC[n+]1ccn(Cc2ccccc2)c1.F[B-](F)(F)F is 5.79

Sure, the documented activity coefficient for CCC(=O)CC [pentan-3-one] + CCCOC[n+]1ccn(C)c1.N#C[N-]C#N is 2.19

Sure, the documented activity coefficient for Cc1ccccc1 [toluene] + CCCCCCCCn1cc[n+](COCCC)c1C.N#C[N-]C#N is 1.22

Sure, the documented activity coefficient for Cc1ccccc1C [1,2-dimethylbenzene] + CCCCCCCCn1cc[n+](COCCC)c1C.O=S(=O)([N-]S(=O)(=O)C(F)(F)F)C(F)(F)F is 0.94

Sure, the documented activity coefficient for ClC(Cl)(Cl)Cl [tetrachloromethane] + CCCOC[n+]1ccn(C)c1.F[B-](F)(F)F is 8.58

Sure, the documented activity coefficient for Cc1ccccc1C [1,2-dimethylbenzene] + CCCCCCCCn1cc[n+](COCCCOC[n+]2ccn(CCCCCCCC)c2C)c1C.O=S(=O)([N-]S(=O)(=O)C(F)(F)F)C(F)(F)F.O=S(=O)([N-]S(=O)(=O)C(F)(F)F)C(F)(F)F is 0.66

Sure, the documented activity coefficient for CCCCCCCCCC [decane] + CCCOC[n+]1ccn(Cc2ccccc2)c1.N#C[N-]C#N is 123
